STUDY TARGET: T1, human CD4 on cells (SKW3 cells; human PBMCs) (human, UniProt P01730 26-458)
T1 construct: whole, on cells; SKW3 CD4 knockout cells served as the negative cell line in the primary screen; also called hCD4; huCD4
PROCEDURE SUMMARY: FACS primary screen, hybridoma supernatant, SKW3 vs SKW3 CD4 KO cells;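 also: flow cytometry on mixed SKW3 and dye-labeled SKW3 CD4 knockout cells after 30 min at 4 °C with supernatant, ratio of binding signal on parental versus knockout cells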
EXPERIMENTAL READOUT: SKW3 WT vs KO ratio, anti-hKappa-FITC

Ask: Fill in reported SKW3 WT vs KO ratio, anti-hKappa-FITC for this entry: 75110_08G08A (antibody, V domains shown, Tested as non-clonal AlivaMab Mouse Kappa hybridoma supernatant (detected with anti-mouse Fc gamma and anti-human kappa)) VH: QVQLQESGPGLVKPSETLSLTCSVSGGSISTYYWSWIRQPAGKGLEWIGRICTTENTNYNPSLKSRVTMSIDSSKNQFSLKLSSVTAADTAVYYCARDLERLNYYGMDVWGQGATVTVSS VL: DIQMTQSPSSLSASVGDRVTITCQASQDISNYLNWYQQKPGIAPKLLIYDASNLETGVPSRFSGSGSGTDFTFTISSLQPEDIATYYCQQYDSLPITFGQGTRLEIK
Result: 2.4

# ---- query binder ----
Ask: Respond only with SKW3 WT vs KO ratio, anti-hKappa-FITC recorded for 75110_06K03A (antibody, V domains shown, Tested as non-clonal AlivaMab Mouse Kappa hybridoma supernatant (detected with anti-mouse Fc gamma and anti-human kappa)) VH: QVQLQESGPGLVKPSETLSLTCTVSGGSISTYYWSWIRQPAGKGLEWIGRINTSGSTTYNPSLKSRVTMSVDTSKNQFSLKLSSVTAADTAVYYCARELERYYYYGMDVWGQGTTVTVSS VL: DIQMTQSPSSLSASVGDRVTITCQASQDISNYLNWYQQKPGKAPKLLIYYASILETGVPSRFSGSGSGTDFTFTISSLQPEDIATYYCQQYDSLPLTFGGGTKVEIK
Result: 2.7

Where these numbers come from: patent US20220112288A1
